Task for the reader: assign each of the following compounds its reported IC50.
tested on: B16F10 melanoma cells; assay: Determination of melanin content in B16F10 cells; type: cell-based, Mouse; settings: Mus musculus, B16-F10, mean ± SE, read-out: IC50 for Melanin Content Inhibition
Write the number in µM without appending the unit.

Requested field: IC50. Item: "N[C@@H](Cn1ccc(=O)c(O)c1)C(=O)N[C@@H](Cc1ccccc1)C(=O)O"
121

Item: "N[C@@H](Cn1ccc(=O)c(O)c1)C(=O)N[C@@H](Cc1c[nH]c2ccccc12)C(=O)O"
109

Then this compound: "C[C@@H](NC(=O)[C@@H](N)Cn1ccc(=O)c(O)c1)C(=O)O"
199

For "N[C@@H](Cn1ccc(=O)c(O)c1)C(=O)N1CCC[C@@H]1C(=O)O" then?
123

// query: "N[C@@H](Cn1ccc(=O)c(O)c1)C(=O)N1CCC[C@H]1C(=O)O"
110

And what about the compound "CC(C)[C@H](NC(=O)[C@@H](N)Cn1ccc(=O)c(O)c1)C(=O)O" ?
170

What about "CC(C)[C@@H](NC(=O)[C@@H](N)Cn1ccc(=O)c(O)c1)C(=O)O" ?
112

Quick one: "C[C@H](NC(=O)[C@@H](N)Cn1ccc(=O)c(O)c1)C(=O)O"
128

# iterate: "N[C@@H](Cn1ccc(=O)c(O)c1)C(=O)N[C@H](Cc1c[nH]c2ccccc12)C(=O)O"
116

Also, "N[C@@H](Cn1ccc(=O)c(O)c1)C(=O)N[C@H](Cc1ccccc1)C(=O)O" please.
168
